Here we gather IC50 data for UniProtKB Q13574 reported by several publications.
Your answer is read as nM, so omit the unit and give the number.

Please review the entries below; each comes with its answer.
CC[C@H]1CN(C(C)c2ccc(C3CC3)c(F)n2)[C@H](CC)CN1c1cc(=O)n(C)c2cn(CC#N)nc12 (stereo partly drawn) = 154
CC[C@H]1CN(C(C)c2ccc3nc(C)sc3c2)[C@H](CC)CN1c1cc(=O)n(C)c2cc(CC#N)nn12 (stereo partly drawn) = 80

Continue with the compound presented below.
What does the data say about its IC50? Entry: CC[C@H]1CN([C@H]2CCCCc3cc(C(F)(F)F)ccc32)[C@H](CC)CN1c1nc2nncn2c2ccc(C#N)nc12
161
